# System: R275C/beta1
# PROTOCOL SUMMARY: modulators of BK channel variants, profiling panel, selectivity assay, cell-based, U2OS BacMam, thallium flux, beta subunits (AID 1259406);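 further: initial slope of Thallos dye fluorescence rise after thallium is added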
# MEASUREMENT PARAMETERS: at 30 µM
Values of log fold change Tl+ flux strictly less than -0.01 map to y, and values of at least -0.01 map to n.

| COMPOUND | CATEGORY |
| --- | --- |
| O=C(Cn1ccc(C(F)(F)F)n1)c1ccc(Cl)cc1 | n |
| O=C1CN(N=Cc2ccc([N+](=O)[O-])o2)C(=O)N1 | y |
| CN(C)C1C(=O)C(C(N)=O)=C(O)C2(O)C(=O)C3=C(O)c4c(O)ccc(Cl)c4C(O)C3CC12 (stereo not drawn) | y |
| Cc1ccc(C(=O)c2c(-c3ccccc3)cc(-c3ccccc3)c3c2C(=O)CCC3)cc1 | y |
| O=C(O)CSCC(=O)Nc1ccc(-c2nc3ccccc3s2)cc1 | n |
| COC(=O)CC1(C(=O)OC)Oc2ccc(Br)cc2C(=O)N1c1cccc(Cl)c1Cl (stereo not drawn) | n |
| CC(=O)C(=CN(C)C)Sc1ccc(Cl)cc1 | n |
| Cc1ccc(C(C)NC(=O)c2ccc(Cl)c(Cl)c2)c(C)c1 (stereo not drawn) | n |

The measured values listed here are drawn from PubChem BioAssay.
